# protocol.notes: Cytotoxicity against human Jurkat cells assessed as reduction in cell viability at 120 uM after 4 hrs by WST1 assay
# Assay type: toxicity, cell-based
parameter: Activity

Before answering, review these 4 worked examples.
| smiles | Activity |
| --- | --- |
| CC(=O)NCCCC[C@H](NC(=O)[C@H](CCCCN)NC(=O)[C@H](CCCNC(=N)N)NC(=O)CNC(=O)[C@H](Cc1ccc(O)cc1)NC(=O)CCNC(=O)c1ccc2c(c1)C1(OC2=O)c2ccc(O)cc2Oc2cc(O)ccc21)C(=O)N[C@@H](CCCNC(=N)N)C(=O)N[C@@H](CCCNC(=N)N)C(=O)N[C@@H](CCC(N)=O)C(=O)N[C@@H](CCCNC(=N)N)C(=O)N[C@@H](CCCNC(=N)N)C(=O)N[C@@H](CCCNC(=N)N)C(=O)O | Non-Toxic |
| CN(C)CCCC[C@H](NC(=O)[C@H](CCCCN)NC(=O)[C@H](CCCNC(=N)N)NC(=O)CNC(=O)[C@H](Cc1ccc(O)cc1)NC(=O)CCNC(=O)c1ccc2c(c1)C1(OC2=O)c2ccc(O)cc2Oc2cc(O)ccc21)C(=O)N[C@@H](CCCNC(=N)N)C(=O)N[C@@H](CCCNC(=N)N)C(=O)N[C@@H](CCC(N)=O)C(=O)N[C@@H](CCCNC(=N)N)C(=O)N[C@@H](CCCNC(=N)N)C(=O)N[C@@H](CCCNC(=N)N)C(=O)O | Non-Toxic |
| CC(=O)NCCCC[C@H](NC(=O)[C@H](CCCNC(=N)N)NC(=O)CNC(=O)[C@H](Cc1ccc(O)cc1)NC(=O)CCNC(=O)c1ccc2c(c1)C1(OC2=O)c2ccc(O)cc2Oc2cc(O)ccc21)C(=O)N[C@@H](CCCCN)C(=O)N[C@@H](CCCNC(=N)N)C(=O)N[C@@H](CCCNC(=N)N)C(=O)N[C@@H](CCC(N)=O)C(=O)N[C@@H](CCCNC(=N)N)C(=O)N[C@@H](CCCNC(=N)N)C(=O)N[C@@H](CCCNC(=N)N)C(=O)O | Non-Toxic |
| CN(C)CCCC[C@H](NC(=O)[C@H](CCCNC(=N)N)NC(=O)CNC(=O)[C@H](Cc1ccc(O)cc1)NC(=O)CCNC(=O)c1ccc2c(c1)C1(OC2=O)c2ccc(O)cc2Oc2cc(O)ccc21)C(=O)N[C@@H](CCCCN)C(=O)N[C@@H](CCCNC(=N)N)C(=O)N[C@@H](CCCNC(=N)N)C(=O)N[C@@H](CCC(N)=O)C(=O)N[C@@H](CCCNC(=N)N)C(=O)N[C@@H](CCCNC(=N)N)C(=O)N[C@@H](CCCNC(=N)N)C(=O)O | Non-Toxic |

API: the following record is the query input.
For record "C[N+](C)(C)CCCC[C@H](NC(=O)[C@H](CCCNC(=N)N)NC(=O)CNC(=O)[C@H](Cc1ccc(O)cc1)NC(=O)CCNC(=O)c1ccc2c(c1)C1(OC2=O)c2ccc(O)cc2Oc2cc(O)ccc21)C(=O)N[C@@H](CCCCN)C(=O)N[C@@H](CCCNC(=N)N)C(=O)N[C@@H](CCCNC(=N)N)C(=O)N[C@@H](CCC(N)=O)C(=O)N[C@@H](CCCNC(=N)N)C(=O)N[C@@H](CCCNC(=N)N)C(=O)N[C@@H](CCCNC(=N)N)C(=O)O" the listed Activity is Non-Toxic

* * *

# protocol.notes: Competitive binding affinity to fluorescein-labeled HIV TAR RNA in presence of Escherichia coli tRNA by electrophoretic mobility shift assay
# Design: species or system Human immunodeficiency virus
# test.parameters: read-out: Kd(app)
Listed below: pKd values for each entry.
Quick note: pKd values are minus log10 of concentrations in mol/L.

| smiles | pKd |
| --- | --- |
| CNCCCC[C@H](NC(=O)[C@H](CCCNC(=N)N)NC(=O)CNC(=O)[C@H](Cc1ccc(O)cc1)NC(C)=O)C(=O)N[C@@H](CCCCN)C(=O)N[C@@H](CCCNC(=N)N)C(=O)N[C@@H](CCCNC(=N)N)C(=O)N[C@@H](CCC(N)=O)C(=O)N[C@@H](CCCNC(=N)N)C(=O)N[C@@H](CCCNC(=N)N)C(=O)N[C@@H](CCCNC(=N)N)C(N)=O | 6.58 |

API: the following record is the query input.
For record "CC(=O)NCCCC[C@H](NC(=O)[C@H](CCCNC(=N)N)NC(=O)CNC(=O)[C@H](Cc1ccc(O)cc1)NC(C)=O)C(=O)N[C@@H](CCCCN)C(=O)N[C@@H](CCCNC(=N)N)C(=O)N[C@@H](CCCNC(=N)N)C(=O)N[C@@H](CCC(N)=O)C(=O)N[C@@H](CCCNC(=N)N)C(=O)N[C@@H](CCCNC(=N)N)C(=O)N[C@@H](CCCNC(=N)N)C(N)=O" the listed pKd is 6.36
